Please respond with reported Papp for every item in the list.
# Tested on: PAMPA
# Condition Details: Papp (x 10^-6 cm/s) – UV Detection / [row 2]; UV Detection
One number for each entry, in ×10⁻⁶ cm/s.

{"columns": ["Compound", "Target System", "Value Type", "Unit Annotation", "Recorded Number"],
 "data": [
  ["CCCCC[C@@H]1OC(=O)[C@@H](C)N(C)C(=O)[C@H](CCCCC)OC(=O)[C@@H](C)N(C)C(=O)[C@H](CCCCC)OC(=O)[C@@H](C)N(C)C1=O [Compound C1.3, ent-verticilide B1]", "PAMPA", "Papp", "×10⁻⁶ cm/s", 4.01],
  ["CCCCC[C@@H]1OC(=O)[C@@H](C)N(C)C(=O)[C@H](CCCCC)OC(=O)[C@@H](C)N(C)C(=O)[C@H](CCCCC)OC(=O)[C@@H](C)N(C)C(=O)[C@H](CCCCC)OC(=O)[C@@H](C)N(C)C(=O)[C@H](CCCCC)OC(=O)[C@@H](C)N(C)C(=O)[C@H](CCCCC)OC(=O)[C@@H](C)N(C)C1=O", "PAMPA", "Papp", "×10⁻⁶ cm/s", 1.93],
  ["CCCCC[C@@H]1OC(=O)[C@@H](C)N(C)C(=O)[C@H](CCCCC)OC(=O)[C@@H](C)N(C)C1=O", "PAMPA", "Papp", "×10⁻⁶ cm/s", 4.93],
  ["CCCCC[C@@H]1OC(=O)[C@@H](C)N(C)C(=O)[C@H](CCCCC)OC(=O)[C@@H](C)N(C)C(=O)[C@H](CCCCC)OC(=O)[C@@H](C)N(C)C(=O)[C@H](CCCCC)OC(=O)[C@@H](C)N(C)C(=O)[C@H](CCCCC)OC(=O)[C@@H](C)N(C)C1=O", "PAMPA", "Papp", "×10⁻⁶ cm/s", 3.13],
  ["CCCCC[C@@H]1OC(=O)[C@@H](C)N(C)C1=O", "PAMPA", "Papp", "×10⁻⁶ cm/s", 14.2]
]}

Now look at this entry.
Problem: Which measured Papp value corresponds to CCCCC[C@@H]1OC(=O)[C@@H](C)N(C)C(=O)[C@H](CCCCC)OC(=O)[C@@H](C)N(C)C(=O)[C@H](CCCCC)OC(=O)[C@@H](C)N(C)C(=O)[C@H](CCCCC)OC(=O)[C@@H](C)N(C)C1=O [Compound C1.4, ent-verticilide] ?
Result: 7.95

---

# Experiment Description: in vitro
# Condition Details: PAMPA, LogPapp
Value Type: Papp at 500 uM (×10⁻⁶ cm/s)
Numbers only, in ×10⁻⁶ cm/s.

Problem: I would be grateful if you could share the reported Papp at 500 uM for "CCCCC[C@H](OC(=O)[C@@H](C)N(C)C(=O)[C@H](CCCCC)OC(=O)[C@@H](C)N(C)C(=O)OC(C)(C)C)C(=O)OCc1ccccc1" .
Result: 1.82

---

# Experiment Description: in vitro
# Condition Details: PAMPA, Papp
So basically: is Papp at 500 uM under 3 ×10⁻⁶ cm/s? Then yes (1). Not under? Then no (0).

{"columns": ["Compound", "Group"],
 "data": [
  ["CCCCC[C@H](NC(=O)[C@@H](C)N(C)C(=O)OC(C)(C)C)C(=O)N(C)[C@H](C)C(=O)N[C@H](CCCCC)C(=O)N(C)[C@H](C)C(=O)O[C@@H](CCCCC)C(=O)N(C)[C@H](C)C(=O)O[C@@H](CCCCC)C(=O)OCc1ccccc1 (stereo in doubt) [Compound L2.2]", "yes (1)"],
  ["CCCCC[C@H](OC(=O)[C@@H](C)N(C)C(=O)[C@H](CCCCC)OC(=O)[C@@H](C)N(C)C(=O)OC(C)(C)C)C(=O)OCc1ccccc1 [Compound L1.2]", "no (0)"],
  ["CCCCC[C@H](OC(=O)[C@@H](C)N(C)C(=O)OC(C)(C)C)C(=O)OCc1ccccc1 [Compound L1.1]", "no (0)"],
  ["CCCCC[C@@H]1OC(=O)[C@@H](C)N(C)C(=O)[C@H](CCCCC)OC(=O)[C@@H](C)N(C)C1=O [Compound C1.2]", "no (0)"]
]}

// switching to the query compound
Problem: Strictly below 3 ×10⁻⁶ cm/s: is that where Papp at 500 uM of CCCCC[C@H](OC(=O)[C@@H](C)N(C)C(=O)[C@H](CCCCC)OC(=O)[C@@H](C)N(C)C(=O)[C@H](CCCCC)OC(=O)[C@@H](C)N(C)C(=O)[C@H](CCCCC)OC(=O)[C@@H](C)N(C)C(=O)OC(C)(C)C)C(=O)OCc1ccccc1 [Compound L1.4] sits?
Result: yes (1)
